# key: entry, value: soluble fraction (log2)
assay.details: soluble fraction after stress (log2 fold change); higher = more stays soluble; pooled small domains, quantitative proteomics
condition.summary: stress: 50 degC

{"columns": ["primary.sequence", "soluble fraction (log2)"],
 "data": [
  ["HMIDQIAEQLQQRLAVDTAFATIQRDYPDVIANKDIELLTAIKVNQKIAEGASRASAMLESAKEVYETL", -0.0203],
  ["HMSESEDFQNRWRPWRSLLDDETPVVREALVDQLKLFPEEGRLFLQQMSEEDDPISARHAFELIKSLGW", -0.132],
  ["HMRMSPRERKIYQFIENHPGTKSGEMAEKLGIPLPTIKRLLSDMVASKLLQKHGTGAGTNYSIEE", 0.201],
  ["HMPPDLSEAIQKRIEGKTDEALEILRKLYNEYPESTEIITMLGRTLLDAEEYALAAFRLEQALDLGG", -0.569]
]}
